Cited source for all entries: paper PMC8380825

- system: NPR-1 mutants (Caenorhabditis elegans, UniProt Q18534, E180A)
- protocol_notes: cAMP reporter gene assay
- Type: cell-based, C. elegans
Where no end group is shown, it is not given here.
property_label: EC50

# input Which EC50 is reported with NPR-1 mutants (Caenorhabditis elegans, UniProt Q18534, E180A) for this entry: GLGPRPLRF-NH2 [FLP-21] ?
# output > 10 µM

----------
Below, each entry is listed alongside its reported EC50 shift (loss of potency) relative to wild type FLP-21.
- system: NPR-1 (Caenorhabditis elegans)
- Sequence (Q18534 1-457): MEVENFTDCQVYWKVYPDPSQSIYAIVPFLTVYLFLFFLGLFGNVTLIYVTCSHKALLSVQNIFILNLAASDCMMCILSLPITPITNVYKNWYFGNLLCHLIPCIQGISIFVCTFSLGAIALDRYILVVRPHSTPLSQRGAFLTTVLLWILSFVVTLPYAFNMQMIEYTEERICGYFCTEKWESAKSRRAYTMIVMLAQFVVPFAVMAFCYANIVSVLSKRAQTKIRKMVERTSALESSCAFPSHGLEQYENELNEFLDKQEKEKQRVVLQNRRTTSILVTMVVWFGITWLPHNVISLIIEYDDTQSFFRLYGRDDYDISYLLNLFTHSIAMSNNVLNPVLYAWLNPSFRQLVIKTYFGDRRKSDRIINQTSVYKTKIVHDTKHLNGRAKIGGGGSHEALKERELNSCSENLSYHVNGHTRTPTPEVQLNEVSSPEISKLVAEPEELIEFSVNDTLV
- protocol_notes: cAMP reporter gene assay
- Format: cell-based, C. elegans
- measurement_parameters: wild type NPR-1
Where no end group is shown, it is not given here.
State the answer as a number, implicitly in fold.

1. Ac-FLP-21: FLP-21 acetylated at the free N terminus (Ac-GLGPRPLRF-NH2) ... 3

# input Quick check: EC50 shift (loss of potency) relative to wild type FLP-21 of [F^9Y]-FLP-21: FLP-21 variant, F^9 to tyrosine (GLGPRPLRY-NH2) ?
# output 14

# input Quick check: EC50 shift (loss of potency) relative to wild type FLP-21 of [P^6A]-FLP-21: FLP-21 variant, P^6 to alanine (GLGPRALRF-NH2) ?
# output 34

# input Quick check: EC50 shift (loss of potency) relative to wild type FLP-21 of [R^5A]-FLP-21: FLP-21 variant, R^5 to alanine (GLGPAPLRF-NH2) ?
# output 368

# input Quick check: EC50 shift (loss of potency) relative to wild type FLP-21 of [L^7A]-FLP-21: FLP-21 variant, L^7 to alanine (GLGPRPARF-NH2) ?
# output 497
